All figures here come from patent US20120276102A1.

- measuredTarget: T1, rat IL-21R expressed on cells (rat)
- T1 construct: whole, on cells
- procedureSummary: cell-based ELISA on CHO cells transiently expressing rat IL-21R; HRP anti-human IgG, A450
measurementKind: EC50 (read off the curve)

IN: Give the measured EC50 (read off the curve) for AbG (antibody, IgG1, V domains shown, As for AbA: IgG1/lambda, CDR3 graft, residue limits derived; also called VHP/VL18) VH: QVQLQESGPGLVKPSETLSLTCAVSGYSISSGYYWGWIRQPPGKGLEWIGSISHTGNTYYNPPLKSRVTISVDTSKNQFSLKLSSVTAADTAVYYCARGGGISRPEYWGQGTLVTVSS VL: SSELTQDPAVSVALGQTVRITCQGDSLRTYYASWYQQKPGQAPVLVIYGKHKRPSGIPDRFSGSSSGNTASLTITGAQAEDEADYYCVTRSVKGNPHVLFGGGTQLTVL
OUT: ~0.9 nM

IN: Give the measured EC50 (read off the curve) for AbO (antibody, human IgG1, V domains shown, CDR3 graft, residue limits derived as for m29; also called VHP/VL16; VHPTM/VL16) VH: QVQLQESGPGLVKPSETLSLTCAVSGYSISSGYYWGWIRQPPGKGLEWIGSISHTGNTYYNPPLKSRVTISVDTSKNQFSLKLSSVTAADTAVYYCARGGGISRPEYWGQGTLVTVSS VL: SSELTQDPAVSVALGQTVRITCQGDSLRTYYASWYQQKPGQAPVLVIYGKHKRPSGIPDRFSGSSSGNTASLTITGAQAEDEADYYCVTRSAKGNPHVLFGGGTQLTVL
OUT: ~0.4 nM

IN: Give the measured EC50 (read off the curve) for AbF (antibody, IgG1, V domains shown, As for AbA: IgG1/lambda, CDR3 graft, residue limits derived; also called VHP/VL17) VH: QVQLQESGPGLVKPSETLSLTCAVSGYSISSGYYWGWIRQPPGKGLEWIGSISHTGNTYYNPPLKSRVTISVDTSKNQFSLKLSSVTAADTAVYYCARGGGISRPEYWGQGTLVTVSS VL: SSELTQDPAVSVALGQTVRITCQGDSLRTYYASWYQQKPGQAPVLVIYGKHKRPSGIPDRFSGSSSGNTASLTITGAQAEDEADYYCSTRSRKGNPHVLFGGGTQLTVL
OUT: ~0.7 nM
